# maps each entry to its Incorporation of [9-3H]NeuAc expressed as percent of the CPM incorporated into 5′-CMP
Target: ST3Gal-II (Rattus norvegicus, UniProt Q11205)
Construct: purchased Calbiochem
Sequence (Q11205 whole entry): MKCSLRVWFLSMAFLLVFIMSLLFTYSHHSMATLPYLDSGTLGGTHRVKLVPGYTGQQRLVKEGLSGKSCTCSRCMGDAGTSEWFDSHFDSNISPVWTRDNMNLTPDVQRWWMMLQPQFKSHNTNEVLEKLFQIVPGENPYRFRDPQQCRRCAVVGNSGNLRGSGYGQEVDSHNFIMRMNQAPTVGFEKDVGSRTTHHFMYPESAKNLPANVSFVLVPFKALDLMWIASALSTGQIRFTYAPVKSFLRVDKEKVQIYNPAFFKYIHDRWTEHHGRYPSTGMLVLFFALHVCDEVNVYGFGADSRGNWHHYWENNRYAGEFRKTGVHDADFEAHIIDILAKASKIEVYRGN
Assay: Reverse sialylation: transfer of [9-3H]NeuAc from sialylated donor to nucleotide phosphates (WGA-agarose)
Assay type: biochemical
Conditions: nucleotide phosphate 1 mM as acceptor, donor [1]
Please state the figure in %; there is no need to write the unit.

INSERT INTO assay_data (compound, unitabbreviation, measured) VALUES
  ('Cc1cn([C@H]2C[C@H](O)[C@@H](COP(=O)(O)O)O2)c(=O)[nH]c1=O', '%', 1.1),
  ('O=c1ccn([C@@H]2O[C@H](COP(=O)(O)O)[C@@H](O)[C@H]2O)c(=O)[nH]1', '%', 55.9),
  ('Nc1ncnc2c1ncn2[C@@H]1O[C@H](COP(=O)(O)O)[C@@H](O)[C@H]1O', '%', 3.0),
  ('Nc1ccn([C@@H]2O[C@H](COP(=O)(O)OP(=O)(O)O)[C@@H](O)[C@H]2O)c(=O)n1', '%', 28.4),
  ('Nc1ccn([C@@H]2O[C@H](COP(=O)(O)OP(=O)(O)OP(=O)(O)O)[C@@H](O)[C@H]2O)c(=O)n1 [5′-CTP, cytidine triphosphate]', '%', 1.6);

Give recorded Incorporation of [9-3H]NeuAc expressed as percent of the CPM incorporated into 5′-CMP with ST3Gal-II (Rattus norvegicus, UniProt Q11205) for the following compound: Nc1ccn([C@@H]2O[C@H](COP(=O)(O)O)[C@@H](O)[C@H]2O)c(=O)n1 [5′-CMP, Cytidine 5′-monophosphate] 100.0

Give recorded Incorporation of [9-3H]NeuAc expressed as percent of the CPM incorporated into 5′-CMP with ST3Gal-II (Rattus norvegicus, UniProt Q11205) for the following compound: Nc1ccn([C@@H]2O[C@H](CO)[C@@H](OP(=O)(O)O)[C@H]2O)c(=O)n1 2.4

Give recorded Incorporation of [9-3H]NeuAc expressed as percent of the CPM incorporated into 5′-CMP with ST3Gal-II (Rattus norvegicus, UniProt Q11205) for the following compound: Nc1ccn([C@H]2C[C@H](O)[C@@H](COP(=O)(O)O)O2)c(=O)n1 26.3

Give recorded Incorporation of [9-3H]NeuAc expressed as percent of the CPM incorporated into 5′-CMP with ST3Gal-II (Rattus norvegicus, UniProt Q11205) for the following compound: Nc1nc2c(ncn2[C@@H]2O[C@H](COP(=O)(O)O)[C@@H](O)[C@H]2O)c(=O)[nH]1 2.3

* * *

Biological target: ST3Gal-II (Rattus norvegicus)
Construct: purchased Calbiochem
Experiment: Serial transfer of sialic acid from donor via 5′-CMP to acceptors (scheme-II)
Assay type: biochemical
Conditions: acceptor 2.5 mM, 150 μM donor [1], 1 mM 5′-CMP, 4 hours
# maps each entry to its Incorporation of [9-3H]NeuAc from donor [1], percent of the CPM incorporated into [5]
Please state the figure in %; there is no need to write the unit.

INSERT INTO assay_data (compound, measured) VALUES
  ('CO[C@H]1[C@@H](O)[C@@H](CO)O[C@@H](O[C@H]2[C@H](O)[C@@H](NC(C)=O)[C@H](OC[C@H]3O[C@H](OCc4ccccc4)[C@H](NC(C)=O)[C@@H](O[C@@H]4O[C@H](CO)[C@H](O)[C@H](O)[C@H]4O)[C@H]3O)O[C@@H]2CO)[C@@H]1O [[9]]', 22.4),
  ('CO[C@@H]1[C@H](O)[C@@H](O)[C@H](O[C@H]2[C@@H](O)[C@@H](CO[C@@H]3O[C@H](CO)[C@@H](O[C@@H]4O[C@H](CO)[C@H](O)[C@H](O)[C@H]4O)[C@H](O)[C@H]3NC(C)=O)O[C@H](OCc3ccccc3)[C@@H]2NC(C)=O)O[C@@H]1CO [[13]]', 1.3),
  ('COC[C@H]1O[C@H](OCc2ccccc2)[C@H](NC(C)=O)[C@@H](O[C@@H]2O[C@H](CO)[C@H](O)[C@H](O)[C@H]2O)[C@H]1O [[8], Galβ1,3(6-O-Me)GalNAcα-O-Bn]', 43.0);

Return reported Incorporation of [9-3H]NeuAc from donor [1], percent of the CPM incorporated into [5]; argument: CC(=O)N[C@H]1[C@@H](OCc2ccccc2)O[C@H](CO)[C@H](O)[C@@H]1O[C@@H]1O[C@H](CO)[C@H](F)[C@H](O)[C@H]1O [[7], 4-FGalβ1,3GalNAcα-O-Bn] 60.8

Return reported Incorporation of [9-3H]NeuAc from donor [1], percent of the CPM incorporated into [5]; argument: CO[C@@H]1[C@H](O)[C@@H](O)[C@H](O[C@H]2[C@@H](O)[C@@H](CO)O[C@H](OCc3ccccc3)[C@@H]2NC(C)=O)O[C@@H]1CO [[11], 4-O-MeGalβ1,3GalNAcα-O-Bn] 8.9

Return reported Incorporation of [9-3H]NeuAc from donor [1], percent of the CPM incorporated into [5]; argument: CC(=O)N[C@H]1[C@H](OC[C@H]2O[C@H](OCc3ccccc3)[C@H](NC(C)=O)[C@@H](O[C@@H]3O[C@H](CO)[C@H](O)[C@H](O)[C@H]3O)[C@H]2O)O[C@H](CO)[C@@H](O[C@@H]2O[C@H](CO)[C@H](O)[C@H](O)[C@H]2O)[C@@H]1O [[10], Galβ1,4GlcNAcβ1,6(Galβ1,3)GalNAcα-O-Bn] 20.5

* * *

Target: ST3Gal-II (Rattus norvegicus)
Construct: purchased Calbiochem
Test: Serial transfer of sialic acid from donor via 5′-CMP to acceptors (scheme-II)
Format: biochemical
Details: acceptor 2.5 mM, 150 μM donor [3], 1 mM 5′-CMP, 4 hours
# maps each entry to its Incorporation of [9-3H]NeuAc from donor [3], percent of the CPM incorporated into [5]
Please state the figure in %; there is no need to write the unit.

INSERT INTO assay_data (molecule, measured) VALUES
  ('CC(=O)N[C@H]1[C@H](OC[C@H]2O[C@H](OCc3ccccc3)[C@H](NC(C)=O)[C@@H](O[C@@H]3O[C@H](C)[C@H](O)[C@H](O)[C@H]3O)[C@H]2O)O[C@H](CO)[C@@H](O)[C@@H]1O [[6], D-Fucβ1,3(GlcNAcβ1,6)GalNAcα-O-Bn]', 106.5),
  ('COC[C@H]1O[C@H](OCc2ccccc2)[C@H](NC(C)=O)[C@@H](O[C@@H]2O[C@H](CO)[C@H](O)[C@H](O)[C@H]2O)[C@H]1O [[8], Galβ1,3(6-O-Me)GalNAcα-O-Bn]', 3.3),
  ('CC(=O)N[C@H]1[C@@H](OCc2ccccc2)O[C@H](CO)[C@H](O)[C@@H]1O[C@@H]1O[C@H](CO)[C@H](F)[C@H](O)[C@H]1O [[7], 4-FGalβ1,3GalNAcα-O-Bn]', 4.1),
  ('CO[C@@H]1[C@H](O)[C@@H](O)[C@H](O[C@H]2[C@@H](O)[C@@H](CO)O[C@H](OCc3ccccc3)[C@@H]2NC(C)=O)O[C@@H]1CO [[11], 4-O-MeGalβ1,3GalNAcα-O-Bn]', 0.2);

Field: next molecule
Return reported Incorporation of [9-3H]NeuAc from donor [3], percent of the CPM incorporated into [5]; argument: CC(=O)N[C@H]1[C@H](OCc2ccccc2)O[C@H](CO)[C@@H](O[C@@H]2O[C@H](CO)[C@H](O)[C@H](O)[C@H]2O)[C@@H]1O [[12], Galβ1,4GlcNAcβ-O-Bn] 0.5
